Just for reference, the Kinase Knowledgebase extract (Sharma et al. 2016) is where these values come from.

# Measurement Target: EGFR (human), P00533 [WT]
# Sequence (P00533 whole entry, looked up): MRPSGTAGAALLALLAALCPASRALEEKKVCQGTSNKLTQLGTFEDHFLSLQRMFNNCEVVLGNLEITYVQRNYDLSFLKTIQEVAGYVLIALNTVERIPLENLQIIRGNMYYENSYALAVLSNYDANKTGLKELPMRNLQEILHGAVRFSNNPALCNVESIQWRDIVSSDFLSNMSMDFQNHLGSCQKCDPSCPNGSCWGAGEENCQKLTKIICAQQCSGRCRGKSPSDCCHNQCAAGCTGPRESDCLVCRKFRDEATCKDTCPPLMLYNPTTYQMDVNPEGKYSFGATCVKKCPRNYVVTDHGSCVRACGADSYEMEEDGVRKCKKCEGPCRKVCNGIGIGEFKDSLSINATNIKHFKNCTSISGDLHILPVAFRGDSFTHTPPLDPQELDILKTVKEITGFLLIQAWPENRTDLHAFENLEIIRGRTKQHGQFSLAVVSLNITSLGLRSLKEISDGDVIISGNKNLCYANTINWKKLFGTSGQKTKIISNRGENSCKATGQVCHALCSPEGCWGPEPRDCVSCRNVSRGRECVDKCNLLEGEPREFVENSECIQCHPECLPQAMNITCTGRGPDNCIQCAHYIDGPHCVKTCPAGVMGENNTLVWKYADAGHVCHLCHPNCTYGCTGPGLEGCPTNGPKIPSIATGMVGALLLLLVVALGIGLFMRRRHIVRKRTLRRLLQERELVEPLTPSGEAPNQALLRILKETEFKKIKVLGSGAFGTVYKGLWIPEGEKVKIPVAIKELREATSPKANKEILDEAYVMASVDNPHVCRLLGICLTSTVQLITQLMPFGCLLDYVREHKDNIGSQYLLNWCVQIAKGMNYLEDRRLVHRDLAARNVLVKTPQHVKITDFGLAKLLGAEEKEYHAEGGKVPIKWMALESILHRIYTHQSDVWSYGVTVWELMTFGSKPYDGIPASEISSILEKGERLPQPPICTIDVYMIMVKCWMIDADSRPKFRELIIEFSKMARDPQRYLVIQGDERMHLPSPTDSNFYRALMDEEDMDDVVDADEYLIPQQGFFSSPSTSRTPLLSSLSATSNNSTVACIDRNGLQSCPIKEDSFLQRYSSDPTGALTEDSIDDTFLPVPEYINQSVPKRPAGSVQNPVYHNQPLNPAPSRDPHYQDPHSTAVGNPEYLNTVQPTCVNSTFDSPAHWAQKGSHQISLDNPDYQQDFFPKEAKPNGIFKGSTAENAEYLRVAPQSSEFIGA
# Condition Description: a549
pIC50: −log10 of the molar value.
Assay Metric: pIC50

* C/C=C/C(=O)Nc1ccc(OC)c(Nc2ncc(Cl)c(Nc3ccccc3C(=O)C(=O)N(C)C)n2)c1 | 5.86
* C=CC(=O)Nc1ccc(OC)c(Nc2ncc(Cl)c(Nc3ccccc3C(=O)C(=O)N(C)C)n2)c1 | 5.80

a. COc1cc(Nc2ncc(Cl)c(Nc3ccccc3C(=O)C(=O)N(C)C)n2)ccc1N1CCC(N(C)C)CC1
b. C=CC(=O)Nc1cc(Nc2ncc(Cl)c(Nc3ccccc3C(=O)C(=O)N(C)C)n2)c(OC)cc1N1CCN(C)CC1
c. C=C(CN1CCOCC1)C(=O)Nc1cccc(Nc2ncc(Cl)c(Nc3ccccc3C(=O)C(=O)N(C)C)n2)c1
d. C=CC(=O)Nc1cccc(Nc2ncc(C(F)(F)F)c(Nc3ccccc3C(=O)C(N)=O)n2)c1
// ascending sort on recorded pIC50 Submit the labels in the order that the ranking request calls for.
a, b, d, c

I. C=CC(=O)Nc1cccc(Nc2ncc(Cl)c(Nc3ccccc3C(=O)C(=O)N(C)C)n2)c1
II. CNC(=O)C(=O)c1ccccc1Nc1nc(Nc2ccc(N3CCN(C)CC3)c(OC)c2)ncc1Cl
Please choose the item with the lower pIC50 value from this pair: I and II Please respond with the label that marks your chosen entry.
II

* * *

pIC50: −log10 of the molar value.
Values of pIC50 reported for EGFR (Human), P00533 [Assessment of HCC827 (EGFR Del) Cell Proliferation] appear below.
Assay Metric: pIC50

// below: answered compounds
• C=CC(=O)Nc1cc(Nc2ncc(Cl)c(Nc3ccccc3C(=O)C(=O)N(C)C)n2)c(OC)cc1N1CCN(C)CC1 = 7.52
• CNC(=O)C(=O)c1ccccc1Nc1nc(Nc2ccc(N3CCC(N(C)C)CC3)cc2OC)ncc1Cl = 6.05
• C=CC(=O)Nc1ccc(OC)c(Nc2ncc(Cl)c(Nc3ccccc3C(=O)C(=O)N(CC)CC)n2)c1 = 7.30
• COc1cc(N2CCN(C)CC2)ccc1Nc1ncc(Cl)c(Nc2ccccc2C(=O)C(=O)N2CCOCC2)n1 = 5.63
• C=C(CN1CCOCC1)C(=O)Nc1cccc(Nc2ncc(Cl)c(Nc3ccccc3C(=O)C(=O)N(C)C)n2)c1 = 7.52

1. COc1cc(N2CCC(N(C)C)CC2)ccc1Nc1ncc(Cl)c(Nc2ccccc2C(=O)C(=O)NO)n1
2. C=CC(=O)Nc1cc(Nc2ncc(Cl)c(Nc3ccccc3C(=O)C(=O)N(C)C)n2)c(OC)cc1F
3. COc1cc(N2CCOCC2)ccc1Nc1ncc(Cl)c(Nc2ccccc2C(=O)C(=O)N(C)C)n1
// ascending sort on recorded pIC50 Submit the labels in the order that the ranking request calls for.
3, 1, 2

* * *

# Measurement Target: EGFR (Human), P00533 [T790M/L858R]
# Sequence (P00533 whole entry T790M/L858R, looked up): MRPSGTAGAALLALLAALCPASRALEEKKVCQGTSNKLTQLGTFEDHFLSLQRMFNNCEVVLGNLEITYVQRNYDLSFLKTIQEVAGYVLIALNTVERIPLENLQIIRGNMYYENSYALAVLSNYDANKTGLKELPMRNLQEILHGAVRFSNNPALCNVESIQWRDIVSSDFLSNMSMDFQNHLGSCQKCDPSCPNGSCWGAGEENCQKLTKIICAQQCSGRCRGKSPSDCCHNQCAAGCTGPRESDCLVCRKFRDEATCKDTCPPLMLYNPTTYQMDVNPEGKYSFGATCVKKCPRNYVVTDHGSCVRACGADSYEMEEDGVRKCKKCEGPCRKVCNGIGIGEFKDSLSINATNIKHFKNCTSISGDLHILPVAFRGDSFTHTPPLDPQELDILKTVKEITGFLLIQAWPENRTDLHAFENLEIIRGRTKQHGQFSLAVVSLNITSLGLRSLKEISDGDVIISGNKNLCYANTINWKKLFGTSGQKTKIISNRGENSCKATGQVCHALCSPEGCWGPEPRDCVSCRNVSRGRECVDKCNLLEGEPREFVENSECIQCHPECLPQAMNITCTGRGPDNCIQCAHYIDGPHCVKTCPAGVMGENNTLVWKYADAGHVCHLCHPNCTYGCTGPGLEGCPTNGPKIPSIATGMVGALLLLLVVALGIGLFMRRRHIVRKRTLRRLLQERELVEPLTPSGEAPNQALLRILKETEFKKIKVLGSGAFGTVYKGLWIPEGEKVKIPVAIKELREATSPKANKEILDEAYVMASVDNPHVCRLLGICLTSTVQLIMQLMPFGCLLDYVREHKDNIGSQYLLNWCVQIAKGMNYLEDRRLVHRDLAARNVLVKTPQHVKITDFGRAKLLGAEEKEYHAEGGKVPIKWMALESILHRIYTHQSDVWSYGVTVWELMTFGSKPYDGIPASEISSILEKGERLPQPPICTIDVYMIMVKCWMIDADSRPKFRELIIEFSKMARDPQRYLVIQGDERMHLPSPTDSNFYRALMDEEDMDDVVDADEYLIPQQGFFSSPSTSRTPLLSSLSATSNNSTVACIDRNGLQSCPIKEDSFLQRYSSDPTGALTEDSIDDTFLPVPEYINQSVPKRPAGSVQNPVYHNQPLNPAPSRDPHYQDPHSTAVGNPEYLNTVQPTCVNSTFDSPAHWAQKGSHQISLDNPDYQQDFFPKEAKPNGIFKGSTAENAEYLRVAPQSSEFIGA
# Condition Description: h1975
pIC50: −log10 of the molar value.
Assay Metric: pIC50

// below: answered compounds
• COc1cc(N2CCN(C(C)=O)CC2)ccc1Nc1ncc(Cl)c(Nc2ccccc2C(=O)C(=O)N(C)C)n1 = 6.68
• C=CC(=O)Nc1cccc(Nc2ncc(Cl)c(Nc3ccccc3C(=O)C(=O)NC)n2)c1 = 7.00
• COc1cc(Nc2ncc(Cl)c(Nc3ccccc3C(=O)C(=O)N(C)C)n2)ccc1N1CCC(N(C)C)CC1 = 8.00

a. C=CC(=O)Nc1ccc(OC)c(Nc2ncc(Cl)c(Nc3ccccc3C(=O)C(=O)N(CC)CC)n2)c1
b. CNC(=O)C(=O)c1ccccc1Nc1nc(Nc2ccc(F)c(OC)c2)ncc1Cl
c. C=CC(=O)Nc1cc(Nc2ncc(Cl)c(Nc3ccccc3C(=O)C(=O)N(C)C)n2)c(OC)cc1F
Kindly order the items shown according to pIC50, from the highest value down. Submit the labels in the order that the ranking request calls for.
a, c, b
